Target: Bcl-2 (Homo sapiens)
Sequence (P10415 whole entry, species assumed): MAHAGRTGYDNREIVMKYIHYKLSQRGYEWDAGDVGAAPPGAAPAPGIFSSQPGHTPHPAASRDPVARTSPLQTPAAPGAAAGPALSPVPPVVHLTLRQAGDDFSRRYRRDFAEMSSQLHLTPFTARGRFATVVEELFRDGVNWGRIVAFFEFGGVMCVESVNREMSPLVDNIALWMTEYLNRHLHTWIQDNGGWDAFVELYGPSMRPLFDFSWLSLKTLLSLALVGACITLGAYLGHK
Test: TR-FRET binding assay, competition with F-Bak for Bcl-2 binding site
Settings: GST-Bcl-2, F-Bak probe
Quantity kind: pKi
Schema: pKi number; meaning minus log10 of the concentration expressed in molar units.

The recorded pKi for `O=C(O)c1nc(-c2ccc3c(c2)N(C(=O)Nc2nc4ccccc4s2)CCC3)sc1-c1ccc(-c2ccccc2)cc1` is 6.64

###

Biological target: Bcl-xL (Homo sapiens)
Construct: made in house
Sequence (Q07817 whole entry, species assumed): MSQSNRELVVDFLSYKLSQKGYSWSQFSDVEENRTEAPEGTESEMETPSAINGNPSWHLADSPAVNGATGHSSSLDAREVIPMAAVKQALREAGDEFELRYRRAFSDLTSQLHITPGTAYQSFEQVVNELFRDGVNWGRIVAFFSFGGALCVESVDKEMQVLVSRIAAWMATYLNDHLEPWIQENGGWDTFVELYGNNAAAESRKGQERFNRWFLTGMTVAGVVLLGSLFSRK
Test: TR-FRET binding assay, competition with F-Bak for Bcl-xL binding site
Details: GST-Bcl-xL, F-Bak probe
Quantity kind: Ki (nM)
Report the value in nM with no unit label.

The recorded Ki for `O=C(O)c1nc(-c2ccc3c(c2)N(C(=O)Nc2nc4ccccc4s2)CCC3)sc1-c1ccc(-c2ccccc2)cc1` is 0.5
